- tested-target: Corticotropin-releasing factor receptor 2/Corticotropin-releasing factor-binding protein (Homo sapiens, UniProt P24387+Q13324)
- Sequence (Q13324 whole entry): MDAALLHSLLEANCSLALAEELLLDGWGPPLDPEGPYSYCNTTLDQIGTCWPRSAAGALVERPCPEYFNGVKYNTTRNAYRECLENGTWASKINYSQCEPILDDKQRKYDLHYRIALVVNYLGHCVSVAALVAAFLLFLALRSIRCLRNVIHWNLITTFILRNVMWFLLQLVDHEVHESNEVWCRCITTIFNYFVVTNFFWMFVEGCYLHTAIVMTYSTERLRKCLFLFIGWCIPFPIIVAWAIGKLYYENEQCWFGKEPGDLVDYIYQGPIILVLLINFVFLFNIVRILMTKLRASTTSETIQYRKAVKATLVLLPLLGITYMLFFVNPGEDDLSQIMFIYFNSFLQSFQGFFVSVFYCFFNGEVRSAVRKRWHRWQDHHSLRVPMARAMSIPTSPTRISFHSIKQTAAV
- Sequence (P24387 whole entry): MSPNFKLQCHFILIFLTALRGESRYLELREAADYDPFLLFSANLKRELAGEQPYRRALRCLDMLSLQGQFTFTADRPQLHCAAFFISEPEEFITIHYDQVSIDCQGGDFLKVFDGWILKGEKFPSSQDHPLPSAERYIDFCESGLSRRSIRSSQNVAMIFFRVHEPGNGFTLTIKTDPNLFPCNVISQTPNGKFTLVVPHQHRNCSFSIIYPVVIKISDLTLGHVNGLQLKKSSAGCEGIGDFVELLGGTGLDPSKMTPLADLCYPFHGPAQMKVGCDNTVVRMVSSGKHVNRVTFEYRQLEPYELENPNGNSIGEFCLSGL
- assay-method-text: Dose Response confirmation of uHTS hits for small molecule antagonists of the CRF-binding protein and CRF-R2 receptor complex.
- Type: functional
- experimental-context: read-out: IC50_Mean
Calls of active or inactive are those of the source. Rule as the data show it: actives have a measured IC50 and inactives only a lower limit.
// values below are reported IC50

chemical-string: Cc1ccc(-c2csc(Nc3ccc(C(=O)O)cc3)[n+]2Cc2ccccc2)cc1
IC50: 13 µM (active)
--
chemical-string: Cc1ccn2cc(CSc3ccccc3N)nc2c1
IC50: > 47.1 µM (inactive)
--
chemical-string: NC(=O)c1ccc(NCc2ccco2)c([N+](=O)[O-])c1
IC50: 5.79 µM (active)
--
chemical-string: N#C/C(=N\Nc1ccccc1Cl)C(=O)c1ccccc1
IC50: 10.2 µM (active)
--
chemical-string: COc1ccc(/C=N/OCC(=O)N=Nc2c(O)[nH]c3ccc(Br)cc23)cc1
IC50: 5.15 µM (active)
